System: HIV-1MDR/C
Type: cell-based
Conditions: PHA-PBMCs, p24 Gag
Listed here are compounds together with their documented EC50 (μM), HIV-1MDR/C (SI).
Just the number please, in µM, no unit attached.

compound="CCC[C@@]1(CCc2ccccc2)CC(O)=C([C@H](CC)c2cccc(NS(=O)(=O)c3ccc(C(F)(F)F)cn3)c2)C(=O)O1 [TPV, Tipranavir]" result_unit=µM numeric_value=0.38

Let us move to another entry and its EC50 (μM), HIV-1MDR/C (SI).
Query: Give HIV-1MDR/C EC50 (μM), HIV-1MDR/C (SI) for COC(=O)N[C@H](C(=O)N[C@@H](Cc1ccccc1)[C@@H](O)CN(Cc1ccc(-c2ccccn2)cc1)NC(=O)[C@@H](NC(=O)OC)C(C)(C)C)C(C)(C)C [AZV, Atazanavir]
Result: 0.065

Reference for the values: patent US9617276B2
